From: ChEMBL document CHEMBL1938274

- PROTOCOL_DETAILS: Half life in cynomolgus monkey at 0.5 mg/kg, iv
- Type: ADME, organism-based, Macaca fascicularis
- Parameters: dose 0.5 mg/kg, route intravenous
- MEASUREMENT_CONTEXT: in vivo
PROPERTY_MEASURED: half-life (h)
Answers are plain numbers, in h.

Entry C[C@H](c1nc2ncccc2c(=O)n1-c1ccc(Cl)cc1)N(CC1CCS(=O)(=O)CC1)C(=O)Cc1ccc(F)c(C(F)(F)F)c1 has what half-life?
9

----------
- PROTOCOL_DETAILS: Fraction unbound in Beagle dog plasma
- Type: ADME, cell-free, Canis lupus familiaris
PROPERTY_MEASURED: fraction unbound
Numbers only.

Entry C[C@H](c1nc2ncccc2c(=O)n1-c1ccc(Cl)cc1)N(CC1CCS(=O)(=O)CC1)C(=O)Cc1ccc(F)c(C(F)(F)F)c1 has what fraction unbound?
0.015

----------
Give bioavailability for every item shown.
- PROTOCOL_DETAILS: Apparent oral bioavailability in mouse at 5 mg/kg
- Format: ADME, organism-based
- MEASUREMENT_CONTEXT: in vivo, read-out: Fapp
One number for each entry, in %.

CCS(=O)(=O)CCN(C(=O)Cc1ccc(F)c(C(F)(F)F)c1)[C@H](C)c1nc2ncccc2c(=O)n1-c1ccc(C#N)cc1; 17
C[C@H](c1nc2ncccc2c(=O)n1-c1ccc(F)cc1)N(CC1CCS(=O)(=O)CC1)C(=O)Cc1ccc(F)c(C(F)(F)F)c1; 59
C[C@H](c1nc2ncccc2c(=O)n1-c1ccc(Cl)cc1)N(CC1CCS(=O)(=O)CC1)C(=O)Cc1ccc(F)c(C(F)(F)F)c1; 45

Now let's try a different one.
Entry C[C@H](c1nc2ncccc2c(=O)n1-c1ccc(C#N)cc1)N(CC1CCS(=O)(=O)CC1)C(=O)Cc1ccc(F)c(C(F)(F)F)c1 has what bioavailability?
17

----------
- PROTOCOL_DETAILS: Fraction unbound in mouse plasma
- Type: ADME, cell-free
PROPERTY_MEASURED: fraction unbound
Give bare numbers.

Entry C[C@H](c1nc2ncccc2c(=O)n1-c1ccc(Cl)cc1)N(CC1CCS(=O)(=O)CC1)C(=O)Cc1ccc(F)c(C(F)(F)F)c1 has what fraction unbound?
0.007

----------
- EXPERIMENTAL_TARGET: Cytochrome P450 3A4 (Homo sapiens)
- Sequence (P08684 whole entry): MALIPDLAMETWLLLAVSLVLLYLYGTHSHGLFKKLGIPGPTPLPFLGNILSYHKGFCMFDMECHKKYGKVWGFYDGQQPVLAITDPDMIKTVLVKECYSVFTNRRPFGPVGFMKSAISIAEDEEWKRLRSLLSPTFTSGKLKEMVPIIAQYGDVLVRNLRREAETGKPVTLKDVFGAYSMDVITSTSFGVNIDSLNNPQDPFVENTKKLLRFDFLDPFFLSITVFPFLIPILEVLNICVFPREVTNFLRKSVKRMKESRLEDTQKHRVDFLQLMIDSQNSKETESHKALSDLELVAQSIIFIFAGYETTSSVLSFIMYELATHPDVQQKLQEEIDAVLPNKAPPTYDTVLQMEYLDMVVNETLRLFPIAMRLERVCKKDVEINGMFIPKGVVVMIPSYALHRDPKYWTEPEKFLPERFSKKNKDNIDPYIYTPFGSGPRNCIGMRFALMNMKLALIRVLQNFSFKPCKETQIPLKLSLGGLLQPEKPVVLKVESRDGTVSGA
- PROTOCOL_DETAILS: Time dependent inhibition of CYP3A4
- Type: ADME
PROPERTY_MEASURED: TDI

Use the examples below as a reference point.
CCOc1ccc(-n2c([C@@H](C)N(CCS(=O)(=O)CC)C(=O)Cc3ccc(F)c(C(F)(F)F)c3)nc3ncccc3c2=O)cc1; Not Active
CCS(=O)(=O)CCN(C(=O)Cc1ccc(F)c(C(F)(F)F)c1)[C@H](C)c1nc2ncccn2c1-c1ccc(O)cc1; Active
CCOc1ccc(-c2c([C@@H](C)N(CCS(=O)(=O)CC)C(=O)Cc3ccc(F)c(C(F)(F)F)c3)nc3ncccn23)cc1; Not Active
CCOc1ccc(-c2c([C@@H](C)N(CCS(=O)(=O)CC)C(=O)Cc3ccc(F)c(C(F)(F)F)c3)nc3ccccn3c2=O)cc1; Not Active

Now let's try a different one.
Entry CCS(=O)(=O)CCN(C(=O)Cc1ccc(F)c(C(F)(F)F)c1)[C@H](C)c1nc2ccccn2c(=O)c1-c1ccc(O)cc1 has what TDI?
Active

----------
- PROTOCOL_DETAILS: Fraction unbound in cynomolgus monkey plasma
- Format: ADME, cell-free, Macaca fascicularis
PROPERTY_MEASURED: fraction unbound
One number for each entry.

Entry C[C@H](c1nc2ncccc2c(=O)n1-c1ccc(Cl)cc1)N(CC1CCS(=O)(=O)CC1)C(=O)Cc1ccc(F)c(C(F)(F)F)c1 has what fraction unbound?
0.037

----------
- EXPERIMENTAL_TARGET: C-X-C chemokine receptor type 3 (Homo sapiens, UniProt P49682)
- PROTOCOL_DETAILS: Displacement of [125I]-IP-10 from CXCR3 in presence of 100% human serum
PROPERTY_MEASURED: IC50 (nM)
Give bare numbers, in nM.

Use the examples below as a reference point.
CCS(=O)(=O)CCN(C(=O)Cc1ccc(F)c(C(F)(F)F)c1)[C@H](C)c1nc2ncccc2c(=O)n1-c1ccc(Cl)cc1; 22
C[C@H](c1nc2ncccc2c(=O)n1-c1ccc(Cl)cc1)N(CC1CCS(=O)(=O)CC1)C(=O)Cc1ccc(F)c(C(F)(F)F)c1; 12
C[C@H](c1nc2ncccc2c(=O)n1-c1ccc(F)cc1)N(CC1CCS(=O)(=O)CC1)C(=O)Cc1ccc(C(F)(F)F)c(F)c1; 22
C[C@H](c1nc2ncccc2c(=O)n1-c1ccc(C#N)cc1)N(CC1CCS(=O)(=O)CC1)C(=O)Cc1ccc(F)c(C(F)(F)F)c1; 12
CCS(=O)(=O)CCN(C(=O)Cc1ccc(C(F)(F)F)c(F)c1)[C@H](C)c1nc2ncccc2c(=O)n1-c1ccc(F)cc1; 58
CCS(=O)(=O)CCN(C(=O)Cc1ccc(C(F)(F)F)c(F)c1)[C@H](C)c1nc2ncccc2c(=O)n1-c1ccc(Cl)cc1; 21
CCOc1ccc(-n2c([C@@H](C)N(Cc3ccc[n+]([O-])c3)C(=O)Cc3ccc(OC(F)(F)F)cc3)nc3ncccc3c2=O)cc1; 14
C[C@H](c1nc2ccccn2c(=O)c1-c1ccc(C#N)cc1)N(CC1CCS(=O)(=O)CC1)C(=O)Cc1ccc(OC(F)(F)F)cc1; 22
C[C@H](c1nc2ncccc2c(=O)n1-c1ccc(C#N)cc1)N(CCS(C)(=O)=O)C(=O)Cc1ccc(F)c(C(F)(F)F)c1; 29
C[C@H](c1nc2ncccc2c(=O)n1-c1ccc(Cl)cc1)N(CC1CCS(=O)(=O)CC1)C(=O)Cc1ccc(C(F)(F)F)c(F)c1; 13

Batch of 4 molecules: report IC50 for each.
1. C[C@H](c1nc2ncccc2c(=O)n1-c1ccc(O)cc1)N(Cc1cccnc1)C(=O)Cc1ccc(OC(F)(F)F)cc1
2. C[C@H](c1nc2ncccc2c(=O)n1-c1ccc(F)cc1)N(CC1CCS(=O)(=O)CC1)C(=O)Cc1ccc(F)c(C(F)(F)F)c1
3. C[C@H](c1nc2ncccc2c(=O)n1-c1ccc(C#N)cc1)N(CC1CCS(=O)(=O)CC1)C(=O)Cc1ccc(C(F)(F)F)c(F)c1
4. CCS(=O)(=O)CCN(C(=O)Cc1ccc(F)c(C(F)(F)F)c1)[C@H](C)c1nc2ncccc2c(=O)n1-c1ccc(F)cc1

1. 4.1
2. 17
3. 15
4. 50

----------
- PROTOCOL_DETAILS: Volume of distribution at steady state in mouse at 1 mg/kg, iv
- Assay type: ADME, organism-based
- Parameters: dose 1 mg/kg, route intravenous
- MEASUREMENT_CONTEXT: in vivo, read-out: Vdss
PROPERTY_MEASURED: Vd (L/kg)
Give bare numbers, in L/kg.

C[C@H](c1nc2ncccc2c(=O)n1-c1ccc(F)cc1)N(CC1CCS(=O)(=O)CC1)C(=O)Cc1ccc(F)c(C(F)(F)F)c1; 0.73

Now let's try a different one.
Entry C[C@H](c1nc2ncccc2c(=O)n1-c1ccc(Cl)cc1)N(CC1CCS(=O)(=O)CC1)C(=O)Cc1ccc(F)c(C(F)(F)F)c1 has what Vd?
0.48

----------
Give Vd for every item shown.
- PROTOCOL_DETAILS: Volume of distribution at steady state in cynomolgus monkey at 0.5 mg/kg, iv
- Type: ADME, organism-based, Macaca fascicularis
- Parameters: dose 0.5 mg/kg, route intravenous
- MEASUREMENT_CONTEXT: in vivo, read-out: Vdss
Numbers only, in L/kg.

C[C@H](c1nc2ncccc2c(=O)n1-c1ccc(F)cc1)N(CC1CCS(=O)(=O)CC1)C(=O)Cc1ccc(F)c(C(F)(F)F)c1; 2.2

Now let's try a different one.
Entry C[C@H](c1nc2ncccc2c(=O)n1-c1ccc(Cl)cc1)N(CC1CCS(=O)(=O)CC1)C(=O)Cc1ccc(F)c(C(F)(F)F)c1 has what Vd?
1.2

----------
- EXPERIMENTAL_TARGET: C-X-C chemokine receptor type 3 (Homo sapiens, UniProt P49682)
- Sequence (P49682 whole entry): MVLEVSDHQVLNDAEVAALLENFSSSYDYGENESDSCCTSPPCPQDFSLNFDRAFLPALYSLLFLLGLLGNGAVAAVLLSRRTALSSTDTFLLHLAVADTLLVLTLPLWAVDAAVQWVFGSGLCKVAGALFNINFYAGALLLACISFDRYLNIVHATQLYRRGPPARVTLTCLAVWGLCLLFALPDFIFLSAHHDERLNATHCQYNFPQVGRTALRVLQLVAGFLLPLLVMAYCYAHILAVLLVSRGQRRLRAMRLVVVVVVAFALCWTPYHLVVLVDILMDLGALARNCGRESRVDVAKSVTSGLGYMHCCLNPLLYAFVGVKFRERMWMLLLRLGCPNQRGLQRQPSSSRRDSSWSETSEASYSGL
- PROTOCOL_DETAILS: Displacement of [125I]-IP-10 from CXCR3
Field: label. Allowed values: satisfied (IC50 < 10 nM) or not satisfied (IC50 >= 10 nM).

// below: answered molecules
C[C@H](c1nc2ncccc2c(=O)n1-c1ccc(Cl)cc1)N(CC1CCS(=O)(=O)CC1)C(=O)Cc1ccc(F)c(C(F)(F)F)c1; satisfied
C[C@H](c1nc2ncccc2c(=O)n1-c1ccc(O)cc1)N(Cc1cccnc1)C(=O)Cc1ccc(OC(F)(F)F)cc1; not satisfied

Quick check: IC50 of C[C@H](c1nc2ncccc2c(=O)n1-c1ccc(C#N)cc1)N(CCS(C)(=O)=O)C(=O)Cc1ccc(F)c(C(F)(F)F)c1 under 10 nM?
not satisfied

What do you get for C[C@H](c1nc2ncccc2c(=O)n1-c1ccc(F)cc1)N(CC1CCS(=O)(=O)CC1)C(=O)Cc1ccc(F)c(C(F)(F)F)c1 ?
satisfied

What do you get for C[C@H](c1nc2ccccn2c(=O)c1-c1ccc(C#N)cc1)N(CC1CCS(=O)(=O)CC1)C(=O)Cc1ccc(OC(F)(F)F)cc1 ?
satisfied

What do you get for C[C@H](c1nc2ncccc2c(=O)n1-c1ccc(C#N)cc1)N(CC1CCS(=O)(=O)CC1)C(=O)Cc1ccc(F)c(C(F)(F)F)c1 ?
satisfied
